Experiment: Drug concentration in CD-1 mouse plasma at 5 mg/kg, ip administered for 90 mins
Format: ADME, organism-based
VALUE_KIND: concentration at 1.5 h

>>> reported("C[C@H](CC[C@](C)(O)C(F)(F)F)[C@H]1CC[C@H]2[C@@H]3CC=C4C[C@@](C)(O)CC[C@]4(C)[C@H]3CC[C@]12C")
"1550 ng/mL"

###

Molecular target: Glutamate NMDA receptor; GRIN1/GRIN2A (Homo sapiens, UniProt Q05586+Q12879)
Sequence (Q12879 whole entry, other chains not shown): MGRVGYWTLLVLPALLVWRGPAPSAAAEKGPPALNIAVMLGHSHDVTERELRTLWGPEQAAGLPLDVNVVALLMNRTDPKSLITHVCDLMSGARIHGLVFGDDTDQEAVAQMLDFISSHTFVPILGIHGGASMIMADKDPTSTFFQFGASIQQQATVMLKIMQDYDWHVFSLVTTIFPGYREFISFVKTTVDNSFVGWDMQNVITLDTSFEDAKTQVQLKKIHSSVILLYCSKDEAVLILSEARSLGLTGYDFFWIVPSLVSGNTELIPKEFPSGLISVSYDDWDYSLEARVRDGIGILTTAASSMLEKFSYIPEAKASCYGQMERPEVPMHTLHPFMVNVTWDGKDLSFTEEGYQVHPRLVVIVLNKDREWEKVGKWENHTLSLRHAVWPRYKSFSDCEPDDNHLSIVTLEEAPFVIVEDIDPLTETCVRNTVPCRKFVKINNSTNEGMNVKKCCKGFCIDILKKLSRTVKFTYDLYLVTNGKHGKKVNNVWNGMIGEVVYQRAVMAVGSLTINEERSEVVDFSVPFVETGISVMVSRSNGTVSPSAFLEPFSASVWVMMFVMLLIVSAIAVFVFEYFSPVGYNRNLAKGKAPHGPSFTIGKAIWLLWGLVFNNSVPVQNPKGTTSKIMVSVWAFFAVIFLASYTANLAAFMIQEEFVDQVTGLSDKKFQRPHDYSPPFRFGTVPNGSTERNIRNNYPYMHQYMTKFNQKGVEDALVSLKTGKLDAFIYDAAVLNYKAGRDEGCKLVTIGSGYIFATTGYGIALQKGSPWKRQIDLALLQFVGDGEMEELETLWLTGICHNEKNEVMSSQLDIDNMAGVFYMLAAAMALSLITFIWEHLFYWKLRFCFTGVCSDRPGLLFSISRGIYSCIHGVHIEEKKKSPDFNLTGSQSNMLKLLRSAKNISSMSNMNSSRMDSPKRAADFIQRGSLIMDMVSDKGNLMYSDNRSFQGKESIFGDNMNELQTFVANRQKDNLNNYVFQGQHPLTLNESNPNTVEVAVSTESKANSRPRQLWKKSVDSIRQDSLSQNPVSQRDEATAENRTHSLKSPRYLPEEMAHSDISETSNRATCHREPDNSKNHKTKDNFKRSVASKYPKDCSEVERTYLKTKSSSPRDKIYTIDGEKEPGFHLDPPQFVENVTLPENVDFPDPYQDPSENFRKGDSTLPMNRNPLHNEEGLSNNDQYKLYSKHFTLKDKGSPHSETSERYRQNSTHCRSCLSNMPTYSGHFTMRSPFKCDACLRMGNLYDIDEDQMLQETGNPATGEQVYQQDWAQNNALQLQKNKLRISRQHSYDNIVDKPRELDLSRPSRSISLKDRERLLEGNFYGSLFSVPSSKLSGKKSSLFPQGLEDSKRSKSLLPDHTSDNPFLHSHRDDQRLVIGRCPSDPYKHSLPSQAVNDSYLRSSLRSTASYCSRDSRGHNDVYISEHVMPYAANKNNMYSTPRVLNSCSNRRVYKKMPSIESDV
Experiment: Positive allosteric modulation of recombinant human GluN1/GluN2A receptor stably expressed in HEK293 cells assessed as increase in glycine/L-glutamate-induced channel current at -70 mV holding potential by whole cell patch clamp method
VALUE_KIND: log10(EC50) (log10 of the value in nM)

>>> reported("C[C@H](CC[C@](C)(O)C(F)(F)F)[C@H]1CC[C@H]2[C@@H]3CC=C4C[C@@](C)(O)CC[C@@H]4[C@H]3CC[C@]12C")
1.97
>>> reported("CCCC[C@](C)(O)CC[C@@H](C)[C@H]1CC[C@H]2[C@@H]3CC=C4C[C@@](C)(O)CC[C@]4(C)[C@H]3CC[C@]12C")
2.00
>>> reported("COCC[C@@](C)(O)CC[C@@H](C)[C@H]1CC[C@H]2[C@@H]3CC=C4C[C@@](C)(O)CC[C@]4(C)[C@H]3CC[C@]12C")
2.34
>>> reported("CC(C)[C@@](C)(O)CC[C@@H](C)[C@H]1CC[C@H]2[C@@H]3CC=C4C[C@@](C)(O)CC[C@]4(C)[C@H]3CC[C@]12C")
1.78
>>> reported("CC(C)[C@](C)(O)CC[C@@H](C)[C@H]1CC[C@H]2[C@@H]3CC=C4C[C@@](C)(O)CC[C@]4(C)[C@H]3CC[C@]12C")
2.08
>>> reported("CCCC[C@@](C)(O)CC[C@@H](C)[C@H]1CC[C@H]2[C@@H]3CC=C4C[C@@](C)(O)CC[C@]4(C)[C@H]3CC[C@]12C")
2.20
>>> reported("C[C@H](CC[C@](C)(O)C1CC1)[C@H]1CC[C@H]2[C@@H]3CC=C4C[C@@](C)(O)CC[C@]4(C)[C@H]3CC[C@]12C")
2.62
>>> reported("CC[C@](C)(O)CC[C@@H](C)[C@H]1CC[C@H]2[C@@H]3CC=C4C[C@@](C)(O)CC[C@]4(C)[C@H]3CC[C@]12C")
1.74
>>> reported("C[C@H](CC[C@](C)(O)C(F)(F)F)[C@H]1CC[C@H]2[C@@H]3CC=C4C[C@](C)(O)CC[C@]4(C)[C@H]3CC[C@]12C")
3.34
>>> reported("C[C@H](CC[C@](C)(O)C(F)(F)F)[C@H]1CC[C@H]2[C@@H]3CC=C4C[C@@](C)(O)CC[C@]4(C)[C@H]3CC[C@]12C")
1.93
>>> reported("C[C@H](CC[C@@](C)(O)C1CC1)[C@H]1CC[C@H]2[C@@H]3CC=C4C[C@@](C)(O)CC[C@]4(C)[C@H]3CC[C@]12C")
1.87
>>> reported("CC[C@@](C)(O)CC[C@@H](C)[C@H]1CC[C@H]2[C@@H]3CC=C4C[C@@](C)(O)CC[C@]4(C)[C@H]3CC[C@]12C")
2.18
>>> reported("C[C@H](CC[C@@](C)(O)C(F)(F)F)[C@H]1CC[C@H]2[C@@H]3CC=C4C[C@@](C)(O)CC[C@]4(C)[C@H]3CC[C@]12C")
2.49
>>> reported("C[C@H](CC[C@](C)(O)C(F)(F)F)[C@H]1CC[C@H]2[C@@H]3CC[C@H]4C[C@@](C)(O)CC[C@]4(C)[C@H]3CC[C@]12C")
2.26

FYI, the data here is from ChEMBL document CHEMBL5131569.
